# tested-system: IL-13 (Homo sapiens (Human), UniProt P35225 35-146, limits assumed)
# Sequence (P35225 35-146 limits assumed): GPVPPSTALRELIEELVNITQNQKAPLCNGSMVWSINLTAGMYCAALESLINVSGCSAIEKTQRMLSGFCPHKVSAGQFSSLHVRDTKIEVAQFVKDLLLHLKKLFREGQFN
# assay-comment: Biacore
The following binders are listed with their measured kon values.
Supply the numeric figure in M⁻¹ s⁻¹, leaving out any unit text.

Record excerpt, results attached:
| binder | measure | numeric-value |
| --- | --- | --- |
| M448 (antibody, V domains shown, anti-IL-13, human IgG1) VH: QVTLKESGPVLVKPTETLTLTCTVSGFSLSTYGMGVGWIRQPPGKALEWLAHIWWDDVKRYNPALKSRLTISKDTSKSQVVLTMTNMDPVDTATYYCARMGSDYDVWFDYWGQGTLVTVSS VL: EIVLTQSPATLSLSPGERATLSCRASKSISKYLAWYQQKPGQAPRLLIYSGSTLQSGIPARFSGSGSGTDFTLTISSLEPEDFAVYYCQQHSHGPYTFGQGTKLEIK | kon | 1.39e+06 |
| M455 (antibody, V domains shown, anti-IL-13, human IgG1) VH: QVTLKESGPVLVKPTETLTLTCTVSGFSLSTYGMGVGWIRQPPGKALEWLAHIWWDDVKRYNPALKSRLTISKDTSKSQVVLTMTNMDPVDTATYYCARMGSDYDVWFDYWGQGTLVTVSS VL: EIVLTQSPATLSLSPGERATLSCRASKSISKYLAWYQQKPGQAPRLLIYSGSTLQSGIPARFSGSGSGTDFTLTISSLEPEDFAVYYCQQHNEAPYTFGQGTKLEIK | kon | 1.63e+06 |
| M447 (antibody, V domains shown, anti-IL-13, human IgG1) VH: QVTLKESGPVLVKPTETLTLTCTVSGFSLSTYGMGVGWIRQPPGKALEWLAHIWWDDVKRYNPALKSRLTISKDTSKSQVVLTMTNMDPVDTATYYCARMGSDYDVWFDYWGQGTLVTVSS VL: EIVLTQSPATLSLSPGERATLSCRASKSISKYLAWYQQKPGQAPRLLIYSGSTLQSGIPARFSGSGSGTDFTLTISSLEPEDFAVYYCQQQDIGPYTFGQGTKLEIK | kon | 980000 |
| M454 (antibody, V domains shown, anti-IL-13, human IgG1) VH: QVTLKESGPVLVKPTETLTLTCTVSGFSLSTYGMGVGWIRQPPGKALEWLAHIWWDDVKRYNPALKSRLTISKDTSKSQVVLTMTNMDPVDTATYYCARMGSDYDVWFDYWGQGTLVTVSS VL: EIVLTQSPATLSLSPGERATLSCRASKSISKYLAWYQQKPGQAPRLLIYSGSTLQSGIPARFSGSGSGTDFTLTISSLEPEDFAVYYCQQQDYGPYTFGQGTKLEIK | kon | 1.13e+06 |
| M469 (antibody, V domains shown, anti-IL-13, human IgG1) VH: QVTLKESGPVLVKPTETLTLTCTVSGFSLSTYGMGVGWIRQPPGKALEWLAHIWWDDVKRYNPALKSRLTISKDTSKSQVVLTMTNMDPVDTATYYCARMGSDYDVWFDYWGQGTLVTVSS VL: EIVLTQSPATLSLSPGERATLSCRASKSISKYLAWYQQKPGQAPRLLIYSGSTLQSGIPARFSGSGSGTDFTLTISSLEPEDFAVYYCQQHDWEPYTFGQGTKLEIK | kon | 1.43e+06 |

query: Look up and report measured kon for this entry: M443 (antibody, V domains shown, anti-IL-13, human IgG1) VH: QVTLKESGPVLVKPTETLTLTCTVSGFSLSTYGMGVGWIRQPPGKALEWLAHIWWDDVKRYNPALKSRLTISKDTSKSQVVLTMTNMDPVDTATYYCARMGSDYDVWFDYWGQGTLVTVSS VL: EIVLTQSPATLSLSPGERATLSCRASKSISKYLAWYQQKPGQAPRLLIYSGSTLQSGIPARFSGSGSGTDFTLTISSLEPEDFAVYYCQQHSWGPYTFGQGTKLEIK
result: 880000

query: Consider the binder M473 (antibody, V domains shown, anti-IL-13, human IgG1) VH: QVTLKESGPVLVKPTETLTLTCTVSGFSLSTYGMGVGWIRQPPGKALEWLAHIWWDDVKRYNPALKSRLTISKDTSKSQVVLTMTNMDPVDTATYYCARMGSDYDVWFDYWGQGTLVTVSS VL: EIVLTQSPATLSLSPGERATLSCRASKSISKYLAWYQQKPGQAPRLLIYSGSTLQSGIPARFSGSGSGTDFTLTISSLEPEDFAVYYCQQHDRDPYTFGQGTKLEIK . State its measured kon.
result: 1.29e+06

query: Quote kon reported for M1292 (antibody, V domains shown) VH: QVTLKESGPVLVKPTETLTLTCTVSGFSLSTYGEGVGWIRQPPGKALEWLAHIWWDDVKRYNPALKSRLTISKDTSKSQVVLTMTNMDPVDTATYYCARLGSDYDVWFDYWGQGTLVTVSS VL: EIVLTQSPATLSLSPGERATLSCRASKSISKYLAWYQQKPGQAPRLLIYSGSTLQSGIPARFSGSGSGTDFTLTISSLEPEDFAVYYCQQHDYPYTFGQGTKLEIK please.
result: 1.05e+06

query: Supply recorded kon for M479 (antibody, V domains shown, anti-IL-13, human IgG1) VH: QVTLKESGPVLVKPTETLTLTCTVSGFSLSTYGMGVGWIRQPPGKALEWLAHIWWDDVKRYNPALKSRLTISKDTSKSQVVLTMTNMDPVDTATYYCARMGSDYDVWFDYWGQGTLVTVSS VL: EIVLTQSPATLSLSPGERATLSCRASKSISKYLAWYQQKPGQAPRLLIYSGSTLQSGIPARFSGSGSGTDFTLTISSLEPEDFAVYYCQQPLDTPYTFGQGTKLEIK here.
result: 1.25e+06

query: Given M452 (antibody, V domains shown, anti-IL-13, human IgG1) VH: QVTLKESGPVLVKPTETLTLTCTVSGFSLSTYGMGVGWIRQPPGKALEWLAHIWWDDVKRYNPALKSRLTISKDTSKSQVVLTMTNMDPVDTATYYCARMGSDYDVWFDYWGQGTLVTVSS VL: EIVLTQSPATLSLSPGERATLSCRASKSISKYLAWYQQKPGQAPRLLIYSGSTLQSGIPARFSGSGSGTDFTLTISSLEPEDFAVYYCQQHLNGPYTFGQGTKLEIK , respond with its kon.
result: 1.16e+06
